System: UniProt P11509 | Read-out: IC50 | Origin: multiple publications
Sequence (P11509 whole entry): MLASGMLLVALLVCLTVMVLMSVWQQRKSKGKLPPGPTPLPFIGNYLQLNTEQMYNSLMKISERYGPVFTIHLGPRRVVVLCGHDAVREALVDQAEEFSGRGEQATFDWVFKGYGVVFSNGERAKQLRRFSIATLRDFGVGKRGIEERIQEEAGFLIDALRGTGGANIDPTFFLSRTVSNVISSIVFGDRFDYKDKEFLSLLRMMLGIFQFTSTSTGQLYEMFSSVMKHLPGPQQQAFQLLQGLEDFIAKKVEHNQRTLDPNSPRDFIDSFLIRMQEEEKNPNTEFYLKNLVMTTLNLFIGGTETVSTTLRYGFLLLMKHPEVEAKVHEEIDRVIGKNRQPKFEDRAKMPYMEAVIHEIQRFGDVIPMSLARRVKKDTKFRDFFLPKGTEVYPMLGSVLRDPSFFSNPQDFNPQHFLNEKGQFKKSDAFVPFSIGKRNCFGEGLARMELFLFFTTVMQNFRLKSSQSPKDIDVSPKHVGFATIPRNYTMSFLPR

Worked examples, 3 compounds total:
{"columns": ["molecule-smiles", "IC50"],
 "data": [
  ["Cn1c(=O)c2c(cc(N3CCC[C@@](C)(N)C3)n2Cc2cc(F)ccc2C#N)n(C)c1=O", "> 50 µM"],
  ["COc1cc(OC)c(/C=C/C(=O)c2ccc(C(F)(F)F)cc2)cc1Cl", "> 100 µM"],
  ["O=C(c1cc(F)cc(Cl)c1)N1CCn2nc(-c3ccc(F)cn3)cc2C1", "> 40 µM"]
]}

What is its IC50 for UniProt P11509? Entry: Cc1c(-c2cn(C(C)C)c(=O)c3ccccc23)c2cc(F)ccc2n1CC(=O)O > 100 µM
